FYI, the data here is from ChEMBL document CHEMBL3414437.

- ASSAY NOTES: Antiproliferative activity against human HCT8 cells assessed as inhibition of cell proliferation after 72 hrs by MTT assay
- Assay type: functional, cell-based
- DETAILS: HCT-8, 72 h
PARAMETER: IC50 (nM)

>  <MOLECULE>
CC1(C)CC[C@]2(C(=O)NCC(=O)OCCCOc3no[n+]([O-])c3S(=O)(=O)c3ccccc3)CC[C@]3(C)[C@H](C(=O)C=C4[C@@]5(C)C=C(C#N)C(=O)C(C)(C)[C@@H]5CC[C@]43C)[C@@H]2C1

>  <PARAMETER>
IC50

>  <RESULT NUMBER>
550

$$$$
>  <MOLECULE>
O=c1[nH]cc(F)c(=O)[nH]1 [FLUOROURACIL]

>  <PARAMETER>
IC50

>  <RESULT NUMBER>
910

$$$$
>  <MOLECULE>
CC1(C)CC[C@]2(C(=O)N3CCC[C@H]3C(=O)OCC#CCOc3no[n+]([O-])c3S(=O)(=O)c3ccccc3)CC[C@]3(C)[C@H](C(=O)C=C4[C@@]5(C)C=C(C#N)C(=O)C(C)(C)[C@@H]5CC[C@]43C)[C@@H]2C1

>  <PARAMETER>
IC50

>  <RESULT NUMBER>
441

$$$$
